# EXPERIMENTAL_TARGET: wild-type human cardiac sodium channel, hNav1.5 (Homo sapiens)
# Sequence (Q14524 whole entry): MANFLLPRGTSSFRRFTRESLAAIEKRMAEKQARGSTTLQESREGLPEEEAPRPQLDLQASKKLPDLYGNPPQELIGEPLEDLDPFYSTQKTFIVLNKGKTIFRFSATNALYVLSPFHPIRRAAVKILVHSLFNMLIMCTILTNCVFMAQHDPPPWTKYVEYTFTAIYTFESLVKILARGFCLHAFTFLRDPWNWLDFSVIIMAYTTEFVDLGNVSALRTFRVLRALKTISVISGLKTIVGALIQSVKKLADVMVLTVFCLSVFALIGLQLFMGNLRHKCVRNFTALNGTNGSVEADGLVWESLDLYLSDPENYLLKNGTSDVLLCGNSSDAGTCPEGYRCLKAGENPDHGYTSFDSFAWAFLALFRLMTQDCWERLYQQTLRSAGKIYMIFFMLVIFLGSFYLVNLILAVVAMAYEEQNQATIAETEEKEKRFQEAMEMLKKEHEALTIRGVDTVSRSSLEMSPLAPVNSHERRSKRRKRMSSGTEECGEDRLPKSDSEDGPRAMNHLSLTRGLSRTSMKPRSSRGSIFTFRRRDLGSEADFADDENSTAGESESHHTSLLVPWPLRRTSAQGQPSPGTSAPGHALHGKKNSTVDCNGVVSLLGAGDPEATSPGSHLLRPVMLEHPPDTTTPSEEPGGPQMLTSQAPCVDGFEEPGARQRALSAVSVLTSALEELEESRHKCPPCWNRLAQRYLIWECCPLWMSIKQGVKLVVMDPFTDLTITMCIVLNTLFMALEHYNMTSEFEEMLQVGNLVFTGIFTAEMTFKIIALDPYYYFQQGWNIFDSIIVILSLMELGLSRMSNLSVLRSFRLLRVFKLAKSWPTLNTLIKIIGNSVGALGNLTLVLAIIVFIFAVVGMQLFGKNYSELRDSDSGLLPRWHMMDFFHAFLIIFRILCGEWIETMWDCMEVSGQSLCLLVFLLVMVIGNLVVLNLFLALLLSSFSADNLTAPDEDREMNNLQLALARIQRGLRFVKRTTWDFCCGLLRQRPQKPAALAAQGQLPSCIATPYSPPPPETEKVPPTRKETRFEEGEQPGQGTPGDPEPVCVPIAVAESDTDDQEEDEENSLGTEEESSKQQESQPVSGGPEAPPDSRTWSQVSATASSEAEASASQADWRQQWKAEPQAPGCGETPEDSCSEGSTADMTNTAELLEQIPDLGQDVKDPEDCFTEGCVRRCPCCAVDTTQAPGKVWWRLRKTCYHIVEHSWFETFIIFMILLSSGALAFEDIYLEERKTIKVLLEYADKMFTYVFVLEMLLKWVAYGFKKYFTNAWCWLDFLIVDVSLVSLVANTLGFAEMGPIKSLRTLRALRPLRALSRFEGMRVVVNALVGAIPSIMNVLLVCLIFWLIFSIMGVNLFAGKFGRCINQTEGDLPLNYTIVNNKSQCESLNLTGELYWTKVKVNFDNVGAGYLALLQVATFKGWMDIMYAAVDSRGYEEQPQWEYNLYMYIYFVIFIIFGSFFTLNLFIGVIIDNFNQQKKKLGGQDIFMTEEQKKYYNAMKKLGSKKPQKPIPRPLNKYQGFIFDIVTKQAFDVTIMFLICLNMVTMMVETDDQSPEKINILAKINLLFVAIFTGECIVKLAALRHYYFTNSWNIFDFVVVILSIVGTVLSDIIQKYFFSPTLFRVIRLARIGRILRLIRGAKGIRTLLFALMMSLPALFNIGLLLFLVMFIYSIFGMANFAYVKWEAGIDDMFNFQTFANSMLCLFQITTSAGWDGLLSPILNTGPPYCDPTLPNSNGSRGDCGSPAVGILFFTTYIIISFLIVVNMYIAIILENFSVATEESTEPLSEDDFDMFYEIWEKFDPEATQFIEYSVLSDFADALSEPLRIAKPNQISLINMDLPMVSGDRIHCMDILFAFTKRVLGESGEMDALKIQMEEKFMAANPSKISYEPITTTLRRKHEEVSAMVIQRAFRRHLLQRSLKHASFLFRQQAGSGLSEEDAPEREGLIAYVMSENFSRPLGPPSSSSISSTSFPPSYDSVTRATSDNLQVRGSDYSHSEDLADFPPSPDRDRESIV
# METHOD: Peak INa screening assay (tonic block and use-dependent block)
# Format: cell-based
# REPORTED_CONDITIONS: use-dependent block of Peak INa, 3 Hz, pulse 50, read-out: Peak UDB 3 Hz 3 uM
# Experimental: The cardiac late sodium current (Late INa) and peak sodium current (Peak INa) assays are performed on an automated electrophysiology platform, QPatch 16X or QPatch HT (Sophion Bioscience, Copenhagen, Denmark) using the whole cell patch clamp technique to measure currents through the cell membrane. […] Compounds were evaluated for their effect Nav1.5 Peak INa. […]
QUANTITY: inhibition at 3 µM

Known inhibition at 3 µM results, listed for orientation:
1. O=C1CC(COc2noc3ccc(-c4ccc(OC(F)(F)F)cc4)cc23)CN1 (stereo not drawn)    13.9%
2. CC(C)(C)c1cn(-c2noc3ccc(-c4ccc(OC(F)(F)F)cc4)cc23)cn1    11.2%
3. Fc1cc(-c2ccc(OC(F)(F)F)cc2)cc2c(OCc3nnc(C4CC4)o3)noc12    19.8%

Input: Identify inhibition at 3 µM associated with the compound COc1cc(-c2ccc(C(F)(F)F)cc2F)cc2c(OCc3ncccn3)noc12
Output: < 5%

Input: Give the reported value of inhibition at 3 µM for this record: FC(F)(F)Oc1ccc(-c2ccc3onc(NCCn4cncn4)c3c2)cc1
Output: 17.4%

Input: Please indicate inhibition at 3 µM recorded for FC(F)(F)Oc1ccc(-c2ccc3onc(OCc4nnc(C5CC5)s4)c3c2)cc1
Output: < 5%

Input: Assign inhibition at 3 µM to the following record: CN1CCC[C@H]1COc1noc2ccc(-c3ccc(OC(F)(F)F)cc3)cc12
Output: 44.4%

Input: State, in one line, measured inhibition at 3 µM of Cc1cn(-c2noc3ccc(-c4ccc(OC(F)(F)F)cc4)cc23)cn1
Output: < 5%

Input: Provide measured inhibition at 3 µM value, entry: OCc1cn(-c2noc3ccc(-c4ccc(OC(F)(F)F)cc4)cc23)cn1
Output: 25.5%

Input: Give inhibition at 3 µM for FC(F)(F)Oc1ccc(-c2ccc3onc(OC[C@@H]4COCCN4)c3c2)cc1
Output: 37.3%

Input: Give recorded inhibition at 3 µM. C[C@@H](N)COc1noc2ccc(-c3ccc(OC(F)(F)F)cc3)cc12
Output: 60.8%

Input: Query inhibition at 3 µM for FC(F)(F)Oc1ccc(-c2ccc3onc(OCCNc4ncccn4)c3c2)cc1
Output: < 5%

Input: State, in one line, measured inhibition at 3 µM of Fc1cc(OC(F)(F)F)ccc1-c1ccc2onc(OCc3ncccn3)c2c1
Output: 27.9%

Input: Look up and state reported inhibition at 3 µM for Cc1cc(-c2cc3c(OCc4ncccn4)noc3cc2C)ccc1OC(F)(F)F
Output: < 5%

---

Listing of entries alongside the reported inhibition at 10 µM.
# EXPERIMENTAL_TARGET: hNav1.1 (SCN1A) (Homo sapiens, UniProt P35498)
# METHOD: Use-dependent inhibition of the CNS Nav1.1 sodium channel
# Type: cell-based
# REPORTED_CONDITIONS: use-dependent block, 25 Hz, pulse 20, read-out: Nav1.1 UDB 25 Hz 10 uM
Supply the numeric figure in %, leaving out any unit text.

Input: Recall the reported inhibition at 10 µM of CC(=O)N1CCOC[C@H]1COc1noc2ccc(-c3ccc(OC(F)(F)F)cc3)cc12 when tested on hNav1.1 (SCN1A) (Homo sapiens, UniProt P35498).
Output: 76.4

Input: Lab note: record inhibition at 10 µM of Nc1noc2ccc(-c3ccc(OC(F)(F)F)cc3)cc12 tested on hNav1.1 (SCN1A) (Homo sapiens, UniProt P35498).
Output: 32
